assay: amyloid nucleation score (Sup35N fusion, yeast selection) (log enrichment); library NNK3; higher = more nucleation; inactive = no reads after selection;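 note: zero at mode of non-aggregating sequences after 7 days selection at 30°C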
quantity: amyloid nucleation score

For orientation, consider the following solved cases.
FANFSILS ... inactive
GMSLECNFIYL ... 1.84
TVCVWSVKVMP ... -0.492
SVNSGVMIAEPDLRWCGSAT ... inactive
PFSWCFICKSL ... inactive

## Task Which amyloid nucleation score is reported for this substance? "WYAKWKVN"
## Result inactive

## Task Item "MAKTMM" has what recorded amyloid nucleation score?
## Result inactive

## Task Given the substance "PQHLFST" , what is its reported amyloid nucleation score?
## Result inactive

## Task Would you mind telling me what amyloid nucleation score value was observed for "HGRAYSRNT" ?
## Result inactive

## Task Find the recorded amyloid nucleation score belonging to "MILTKSNSEVFEVGNKKLRV" and report it.
## Result inactive

## Task Please look up its amyloid nucleation score: "LVCHFLDEDCLFACILQNMR"
## Result inactive

## Task Report amyloid nucleation score for "WNMSVRRISYEDL" please.
## Result inactive

## Task Tell me the measured amyloid nucleation score of "NSMYYPYQVVRWLVDWHVIR" , please.
## Result inactive

## Task I'd like to know its amyloid nucleation score. The substance in question is "FMKILQVTDWDPGSVYNSSN"
## Result inactive

## Task Item under review: "VYLHYLTREVSDYLMWWFRV" . Reported amyloid nucleation score?
## Result inactive

---

assay: amyloid nucleation score (Sup35N fusion, yeast selection) (log enrichment); library NNK3; higher = more nucleation; inactive = no reads after selection
quantity: amyloid nucleation score

IRGDGCTGARSPTTSRAAGN ... inactive
KAPDVLVNGRIL ... inactive
AWTTQPPYMFSSGFWNFYVC ... inactive
IALLWQAHLWRHDWKFYFDS ... inactive
VDNCYDVITSLILSKYVLTL ... inactive
LSKQIVIRINSNNCNGSVFF ... 2.7

## Task What measured amyloid nucleation score goes with "IVYLDIDVFFMFLCVASRTE" ?
## Result 1.59

## Task Entry under review: "RRAYVKQGVEFRIWNCYYWL" . Reported amyloid nucleation score?
## Result 0.667

## Task // amyloid nucleation score lookup, key: "HVVFLSSMVATTLLWFG"
## Result 1.26

## Task Endpoint output: amyloid nucleation score of "GGCIGGSYSLERMFYSRVDE" . Value?
## Result inactive

---

Provide the reported amyloid nucleation score of each item.
test: amyloid nucleation score (Sup35N fusion, yeast selection) (log enrichment); library NNK2; higher = more nucleation; inactive = no reads after selection
Would you mind answering with just the numeric figure?

## Task State the recorded amyloid nucleation score for this entry: "VNSNEVFIYPFTNLNFMML"
## Result 5.17

## Task Give the measured amyloid nucleation score of "RFNYEP" .
## Result 0.262

## Task Using the record for "GWEYYSCGENWSLSPLSGYN" , report its amyloid nucleation score.
## Result -0.969

## Task Which amyloid nucleation score reading was recorded for the substance "PVPNYCSEII" ?
## Result -1.1

## Task Requested read-out: amyloid nucleation score. Entry: "SCCYVLKRDFKLMNNVPSGR"
## Result -0.033

## Task # get_value(readout='amyloid nucleation score', item= "LCNSYYFFDSCVIEPYIPLL" )
## Result 5.65

## Task Endpoint output: amyloid nucleation score of "QLVFYSNFVSKDVNVDLQWL" . Value?
## Result 5.75

## Task Given the substance "DICAIIVHWCDDLNVAYWYL" , what is its reported amyloid nucleation score?
## Result 0.058

## Task # get_value(readout='amyloid nucleation score', item= "YSEQNKWSRFVTDGGNLV" )
## Result -0.802

## Task Can you share its amyloid nucleation score? I mean this substance: "AGVCCSVSNILWKCTSSSNG"
## Result 9.93

## Task Consider the substance shown here: "IFFFWVLMRYW" What is its recorded amyloid nucleation score?
## Result -0.689

## Task // amyloid nucleation score lookup, key: "AEYRNDMAIEVSSSYCCGY"
## Result 3.43

## Task So what's the measured amyloid nucleation score for this one? "YAIFYGRLNMCGSGLSVPRE"
## Result 0.381

## Task Tell me the measured amyloid nucleation score of "KVVITQSRVGTLESVKVFYV" , please.
## Result 1.77

## Task Suppose we examine the substance "SRCASKFVTWEAYYTVSVKR" ; what amyloid nucleation score value has been reported?
## Result 0.25

## Task Entry "SLCLLIALSRWSIAS" has what amyloid nucleation score?
## Result 1.14

## Task Which amyloid nucleation score value is on record for "SMRVECF" ?
## Result -1.82

The reported measurements were obtained from the supplement of paper PMC12042874.
